# measured_target: PIM-1 (Homo sapiens (Human), UniProt P11309)
# Sequence (P11309 whole entry): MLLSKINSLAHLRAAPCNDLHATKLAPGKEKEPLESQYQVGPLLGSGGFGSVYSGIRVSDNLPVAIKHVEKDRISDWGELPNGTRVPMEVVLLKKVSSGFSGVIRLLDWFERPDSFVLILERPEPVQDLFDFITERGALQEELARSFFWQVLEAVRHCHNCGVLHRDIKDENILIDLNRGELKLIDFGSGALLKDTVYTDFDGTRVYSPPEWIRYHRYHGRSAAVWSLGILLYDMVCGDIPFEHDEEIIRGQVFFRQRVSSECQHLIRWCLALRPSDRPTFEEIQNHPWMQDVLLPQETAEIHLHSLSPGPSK
# test_details: PIM-1 biochemical assay (ADP Hunter)
# test_parameters: read-out: PIM1 IC50; semi-quantitative
Below: a set of entries, each annotated with reported IC50.

> print(dat)
                                   compound    result
1  CC1COc2c(c(NCC3CCN(C)CC3)nn3c(-c4cccc(OC(F)(F)F)c4)nnc23)N1C (stereo not shown)  < 100 nM
2  CN1CCC(CNc2nn3c(-c4cccc(OC(F)(F)F)c4)nnc3c3c2OCCN3C)CC1  < 100 nM
3  CN1CCOc2c1c(N(C)[C@H]1CC[C@H](O)CC1)nn1c(-c3cccc(OC(F)(F)F)c3)nnc21  < 100 nM

Query compound follows.
Summary for this compound, CN1CCOc2c1c(N1CCC3(CCCNC3)CC1)nn1c(-c3cccc(OC(F)(F)F)c3)nnc21 : IC50 is < 100 nM

----------
Below: a set of entries, each annotated with reported IC50.
# measured_target: PIM-1 (Homo sapiens (Human), UniProt P11309)
# test_details: PIM-1 biochemical assay (ADP Hunter)
# test_parameters: read-out: PIM1 IC50; semi-quantitative

Summary for this compound, CN1CCOc2c(NCC3CCNCC3)nn3c(-c4cccc(OC(F)(F)F)c4)nnc3c21 : IC50 is < 100 nM

Summary for this compound, CN1CCN(C)c2c1c(NCc1ccc(F)cc1)nn1c(-c3ccc(O)cc3)nnc21 : IC50 is < 100 nM

Summary for this compound, CN1CCOc2c(NCc3ccc(F)cc3)nn3c(-c4cccc(OC(F)(F)F)c4)nnc3c21 : IC50 is > 1000 nM

Summary for this compound, COc1ccc(-c2nnc3c4c(c(NCC5CCN(C(=O)OC(C)(C)C)CC5)nn23)N(C)CCO4)cc1 : IC50 is > 1000 nM

Summary for this compound, FC(F)(F)Oc1cccc(-c2nnc3c4c(c(N5CCCCC5)nn23)OCCO4)c1 : IC50 is < 100 nM

Summary for this compound, CN1CCOc2c1c(N1CCC(CN)CC1)nn1c(-c3cccc(OC(F)(F)F)c3)nnc21 : IC50 is < 100 nM

Summary for this compound, CNCC1CCN(c2nn3c(-c4cccc(OC(F)(F)F)c4)nnc3c3c2N(C)CCO3)CC1 : IC50 is < 100 nM

Summary for this compound, CC(C)NC1CC2(CCN(c3nn4c(-c5cccc(OC(F)(F)F)c5)nnc4c4c3N(C)CCO4)CC2)C1 : IC50 is < 100 nM

----------
# UniProtKB Q86V86: IC50 values follow

In the examples that follow, each entry is paired with its recorded IC50.
> print(dat)
                                   compound   measured.target    result
1  CC1CN(C)c2c(NCC3CCN(C)CC3)nn3c(-c4cccc(OC(F)(F)F)c4)nnc3c2O1 (centres unmarked) [Example 40]  UniProtKB Q86V86  < 100 nM
2  CN1CCC(CNc2nn3c(-c4cccc(C(F)(F)F)c4)nnc3c3c2N(C)CCO3)CC1 [Example 32]  UniProtKB Q86V86  < 100 nM
3  CNC1CCN(c2nn3c(-c4cccc(OC(F)(F)F)c4)nnc3c3c2N(C)CCO3)CC1 [Example 62]  UniProtKB Q86V86  < 100 nM

Summary for this compound, CN1CCOc2c1c(NCCCO)nn1c(-c3cccc(OC(F)(F)F)c3)nnc21 [Example 21] : IC50 is 100 to 1000 nM

Summary for this compound, COc1ccc(-c2nnc3c4c(c(N5CCC(CN)CC5)nn23)N(C)CCO4)cc1 [Example 52] : IC50 is > 1000 nM

Data provenance: patent US9682991B2
